EC50 (nM), inhibition of CpG-A stimulated IFNα release from human PBMC values by entry
experimental-system: T1, human BDCA2 (human, UniProt Q8WTT0 1-213)
T1 sequence (looked up): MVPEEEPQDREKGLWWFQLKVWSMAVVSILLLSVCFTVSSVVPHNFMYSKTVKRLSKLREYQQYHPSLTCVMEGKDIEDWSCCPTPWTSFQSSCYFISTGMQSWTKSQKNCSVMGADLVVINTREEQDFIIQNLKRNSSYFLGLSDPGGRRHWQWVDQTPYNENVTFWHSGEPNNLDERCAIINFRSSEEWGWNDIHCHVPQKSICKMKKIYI
test: cell-based or functional assay
measure-name: EC50 (nM), inhibition of CpG-A stimulated IFNα release from human PBMC

binder	output-unit	recorded-value
Hu033-06 (antibody, IgG1, V domains shown, Humanized IgG1; also called Hu033-06(BM3)) VH: EVQLVESGGGLVKPGGSLRLSCAASGFTFSSYGMSWVRQAPGKGLEWVSTISSGDSYTYYPDSVKGRFTISRDNAKNSLYLQMNSLRAEDTAVYYCARQIYYDYAYYFDFWGQGTTVTVSS VL: DIVLTQSPDSLAVSLGERATINCRASESVSFRTSHLMHWYQQKPGQPPKLLIYGASNLESGVPDRFSGSGSETDFTLTISPLQAEDVAVYFCQQSIEDPPTFGGGTKVEIK	nM	0.02
mab033c (antibody, V domains shown) VH: EVQMVESGGDLVKPGDSLKLSCAASGFTFRSYGMSWVRQTPDKRLEWVATISSGDSYTYYPDSVKGRFTISRDNAKNTLYLQMSSLKSEDTALYYCARQIYYDYAYYFDFWGQGTTLTVSS VL: DIVLTQSPASLAVSLGQRATISCRASESVSFRTSHLMHWYQQKPGQPPKLLIYGASNLESGVPARFSGSGSETDFTLNIHPVEEEDAAAYFCQQSIEDPPTFGGGTKLEIK	nM	0.02
Hu033-10 (antibody, IgG1, V domains shown, Humanized IgG1; also called Hu033-10(BM4)) VH: EVQLVESGGGLVKPGGSLRLSCAASGFTFRSYGMSWVRQAPGKRLEWVSTISSGDSYTYYPDSVKGRFTISRDNAKNSLYLQMNSLRAEDTAVYYCARQIYYDYAYYFDFWGQGTTVTVSS VL: DIVLTQSPASLAVSPGQRATITCRASESVSFRTSHLMHWYQQKPGQPPKLLIYGASNLESGVPARFSGSGSETDFTLTINPVEAEDTANYYCQQSIEDPPTFGGGTKVEIK	nM	0.01
Hu033-12 (antibody, IgG1, V domains shown, Humanized IgG1; also called Hu033-12(BM2)) VH: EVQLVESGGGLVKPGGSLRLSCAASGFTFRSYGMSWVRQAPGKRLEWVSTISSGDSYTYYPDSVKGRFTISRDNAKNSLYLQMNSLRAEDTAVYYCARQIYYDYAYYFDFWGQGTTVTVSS VL: DIVMTQSPDSLAVSLGERATINCRASESVSFRTSHLMHWYQQKPGQPPKLLIYGASNLESGVPDRFSGSGSGTDFTLTISSLQAEDVAVYYCQQSIEDPPTFGGGTKVEIK	nM	0.02
Hu033-23 (antibody, IgG1, V domains shown, Humanized IgG1; also called Hu033-23(BM3)) VH: EVQLVESGGGLVKPGGSLRLSCAASGFTFRSYGMSWVRQAPGKRLEWVSTISSGDSYTYYPDSVKGRFTISRDNAKNSLYLQMNSLKAEDTAVYYCARQIYYDYAYYFDFWGQGTTVTVSS VL: EIVLTQSPATLSLSPGERATLSCRASESVSFRTSHLMHWYQQKPGQAPRLLIYGASNLESGIPARFSGSGSGTDFTLTISRLEPEDFAVYYCQQSIEDPPTFGGGTKVEIK	nM	0.03
Hu033-15 (antibody, IgG1, V domains shown, Humanized IgG1; also called Hu033-15(BM2)) VH: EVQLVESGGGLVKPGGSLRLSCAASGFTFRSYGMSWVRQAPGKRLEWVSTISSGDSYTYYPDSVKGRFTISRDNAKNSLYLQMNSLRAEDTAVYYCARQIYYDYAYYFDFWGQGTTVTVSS VL: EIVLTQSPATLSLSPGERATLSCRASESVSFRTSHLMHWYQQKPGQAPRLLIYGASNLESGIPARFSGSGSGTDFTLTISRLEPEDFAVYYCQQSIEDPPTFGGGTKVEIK	nM	0.02
Hu033-16 (antibody, IgG1, V domains shown, Humanized IgG1; also called Hu033-16(BM4)) VH: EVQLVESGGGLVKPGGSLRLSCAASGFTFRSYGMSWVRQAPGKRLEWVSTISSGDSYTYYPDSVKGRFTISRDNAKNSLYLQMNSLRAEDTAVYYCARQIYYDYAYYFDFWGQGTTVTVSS VL: EIVLTQSPATLSLSPGERATLSCRASESVSFRTSHLMHWYQQKPGQAPRLLIYGASNLESGIPARFSGSGSETDFTLTISRLEPEDFAVYFCQQSIEDPPTFGGGTKVEIK	nM	0.01
Hu033-04 (antibody, IgG1, V domains shown, Humanized IgG1; also called Hu033-04(BM0)) VH: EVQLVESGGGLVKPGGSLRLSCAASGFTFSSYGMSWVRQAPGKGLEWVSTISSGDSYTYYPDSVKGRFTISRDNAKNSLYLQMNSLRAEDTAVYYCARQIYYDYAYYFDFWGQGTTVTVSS VL: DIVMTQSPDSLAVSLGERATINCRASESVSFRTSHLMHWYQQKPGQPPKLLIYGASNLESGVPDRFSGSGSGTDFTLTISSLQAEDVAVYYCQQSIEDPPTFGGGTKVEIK	nM	0.03
Hu033-02 (antibody, IgG1, V domains shown, Humanized IgG1; also called Hu033-02(BM2)) VH: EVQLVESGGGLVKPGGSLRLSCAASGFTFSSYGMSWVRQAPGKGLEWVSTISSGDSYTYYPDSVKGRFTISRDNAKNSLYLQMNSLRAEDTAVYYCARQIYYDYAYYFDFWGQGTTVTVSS VL: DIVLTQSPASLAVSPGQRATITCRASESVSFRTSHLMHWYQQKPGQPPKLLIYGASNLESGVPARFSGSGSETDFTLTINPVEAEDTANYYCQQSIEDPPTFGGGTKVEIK	nM	0.02

Reference source: patent US20250346673A1
